# maps each entry to its composite z-score
test system: PRMT1 (protein arginine N-methyltransferase 1); experiment: PRMT1 binders on small-molecule microarrays, primary screen, biochemical, small-molecule microarray, 635 nm fluorescence (AID 1088); settings: small-molecule microarray binding, higher = more signal;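 further: binding of Prmt1 protein to compounds spotted on small-molecule microarray slides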
Property Label: composite z-score

{"columns": ["Molecule", "Value"],
 "data": [
  ["O=C(NN=C1C[C@@H](O)[C@@H](O)[C@@H]2[C@@H]3C(=O)N(c4ccc(F)cc4F)C(=O)[C@@H]3CC[C@H]12)OCc1ccccc1", 0.695],
  ["C#CCCCON=C1C[C@@H](O)[C@@H](O)[C@@H]2[C@@H]3C(=O)N(C[C@@H]4CCCO4)C(=O)[C@@H]3CC[C@@H]12", 0.345],
  ["CON=C1c2cc(OC)ccc2O[C@H](c2cccc(OC)c2)[C@H]1O", -0.0242],
  ["COc1ccc(COC(=O)NN=C2C[C@@H](O)[C@@H](O)[C@@H]3[C@@H]4C(=O)N(c5cccc(Oc6ccccc6)c5)C(=O)[C@@H]4CC[C@H]23)cc1", -0.412],
  ["CC(C)=CCCC(C)=CCON=C1C[C@@H](O)[C@@H](O)[C@@H]2[C@@H]3C(=O)N(C4CCCCC4)C(=O)[C@@H]3CC[C@H]12", 1.52],
  ["C[C@@H]1CC[C@H]2C(=O)N3[C@@H](CC[C@@H](C)[C@@H]3c3ccc(Br)cc3)C(=O)N2[C@H]1c1ccc(Br)cc1", -0.455],
  ["O=C1[C@H]2[C@H]3[C@H](O)[C@H](O)CC(=NO[C@@H]4O[C@H](CO)[C@@H](O)[C@H](O)[C@H]4O)[C@@H]3CC[C@H]2C(=O)N1C1CCCCC1", 0.112],
  ["C[C@@H]1CC[C@H]2C(=O)OC(Cc3ccccc3)CN2[C@H]1c1ccc(Br)cc1 (some centres undefined)", 1.28],
  ["CC(CCN1CCc2nc(-c3ccccc3)c(-c3ccccc3)cc2C1)=NOC(C)CN1CCCc2nc(C)c(C)cc21 (centres undefined)", 1.56],
  ["CCOC(=O)[C@H](CC(C)C)NC(=O)CCC1CC(OC(=O)NCc2ccc3c(c2)OCO3)CC2(CCCC(COC(=O)NCCOC)O2)O1 (some centres undefined)", 0.634],
  ["CC(C)=CCCC(C)=CCON=C1C[C@@H](O)[C@@H](O)[C@@H]2[C@@H]3C(=O)N(Cc4ccc5c(c4)OCO5)C(=O)[C@@H]3CC[C@H]12", 1.44],
  ["CCOC(=O)[C@H](CC(C)C)NC(=O)CCC1CC(OC(=O)NCCc2ccc(F)cc2)CC2(CCCC(COC(=O)NCCOC)O2)O1 (some centres undefined)", 1.41],
  ["CC(CCN1CCc2nc(-c3ccccc3)c(-c3ccccc3)cc2C1)=NO[C@H](C)c1cn([C@H](CO)Cc2ccccc2)nn1", 0.485],
  ["Cc1cc(C)c(-c2cc([C@H](C)ON=C[C@@H](C)[C@H](OCc3ccccc3)C(C)C)on2)c(C)c1", -0.903]
]}

---

target: Torsin-1A (Homo sapiens); test: torsin A binders from cell lysate, primary screen, small-molecule microarray, wild-type, 635/667 nm (AID 1149); settings: COS7 hTOR1A-WT lysate, 635 nm fluorescence, higher = more signal
composite z-score below 0.2 gives condition not met; composite z-score at or above it gives condition met.

{"columns": ["Compound", "Cat"],
 "data": [
  ["CCOC(=O)CCN1C(=O)[C@H]2[C@H]3[C@H](O)[C@H](O)CC(=NNC(=O)OCc4ccccc4)[C@H]3CC[C@H]2C1=O", "condition met"],
  ["CC(CCN1CCCCc2nc(C)c(C)cc21)=NOC[C@@H](O)[C@H]1O[C@@H]2OC(C)(C)O[C@@H]2[C@H]1O", "condition met"],
  ["CCN1C(=O)[C@H]2[C@H]3[C@H](O)[C@H](O)CC(=NO[C@H](C)c4cn([C@@H]5COC[C@H]5O)nn4)[C@@H]3CC[C@H]2C1=O", "condition not met"],
  ["CCOC(=O)[C@H](CC(C)C)NC(=O)CCC1CC(OC(=O)NCCc2ccc(F)cc2)CC2(CCCC(COC(=O)NCc3cccc4ccccc34)O2)O1 (stereo not given in full)", "condition not met"],
  ["C[C@@H]1CC[C@H]2C(=O)OC(CN3C(=O)c4ccccc4C3=O)CN2[C@H]1c1ccc(Br)cc1 (stereo not given in full)", "condition not met"],
  ["CO[C@H]1COC(=O)[C@H](CCSC)NC(=O)CC=C[C@@H](C)[C@H](OC)COC(=O)[C@@H](OCc2ccccc2)C=C[C@@H]1C", "condition met"],
  ["CO[C@H]1COC(=O)CCC[C@H](C)[C@H](OC)COC(=O)CC=C[C@@H]1C", "condition met"],
  ["O=C1[C@H]2[C@H]3[C@H](O)[C@H](O)CC(=NOC[C@@H](O)COCc4ccco4)[C@@H]3CC[C@H]2C(=O)N1Cc1ccc2c(c1)OCO2", "condition met"],
  ["C[C@@H]1CC[C@H]2C(=O)O[C@@H](COc3ccc(C(C)(C)C)cc3)CN2[C@H]1c1ccc(Br)cc1", "condition not met"],
  ["CO[C@@H]1COC(=O)[C@@H]2CCCN2C(=O)[C@@H](C)COC(=O)CCC[C@H]1C", "condition met"],
  ["C[C@@H](c1ccccc1)N1C(=O)[C@H]2[C@H]3[C@H](O)[C@H](O)CC(=NOCc4ccccc4)[C@@H]3CC[C@H]2C1=O", "condition not met"],
  ["CON=C(C)CCN1CCCc2nc(C)c(C)cc21", "condition not met"],
  ["CCC1=NOC(CCC2CC(OC(=O)NCc3cccc4c3OCO4)CC3(CCCC(COC(=O)NCCc4ccc(Cl)cc4)O3)O2)C1 (stereo not given)", "condition met"],
  ["CCOC(=O)[C@H](Cc1ccccc1)NC(=O)CCC1CC(OC(=O)NCCc2ccc(F)cc2)CC2(CCCC(COC(=O)NCCC(C)C)O2)O1 (stereo not given in full)", "condition not met"],
  ["COC(=O)[C@@H]1CC[C@H](C)[C@@H](c2ccc(Br)cc2)N1C(=O)C(F)(F)F", "condition not met"]
]}
